# measured.target: UniProtKB P37231
# Sequence (P37231 238-503): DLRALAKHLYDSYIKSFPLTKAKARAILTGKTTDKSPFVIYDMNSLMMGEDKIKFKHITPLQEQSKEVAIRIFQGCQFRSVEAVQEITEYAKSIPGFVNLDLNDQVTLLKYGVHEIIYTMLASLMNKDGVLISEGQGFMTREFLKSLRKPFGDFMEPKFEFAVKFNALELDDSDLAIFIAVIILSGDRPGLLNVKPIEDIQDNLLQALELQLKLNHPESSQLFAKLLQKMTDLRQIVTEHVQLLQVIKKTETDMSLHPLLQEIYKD
# protocol: Lanthascreen PPARG competitive binding assay (Invitrogen, TR-FRET)
# condition.parameters: Lanthascreen competitive binding; NA = not active; inc = incomplete curve; read-out: IC50 (nM) Lantha
measure.name: IC50 (nM)

{"columns": ["mol.smiles", "measure.name", "display.unit", "reading"],
 "data": [
  ["Cc1c(C)n(Cc2ccc(-c3ccccc3C(=O)O)cc2)c2ccc(C(=O)NCc3ccc(-c4ccccc4)cc3)cc12", "IC50", "nM", 247]
]}

(I) Cc1c(C)n(Cc2ccc(-c3ccccc3C(=O)O)cc2)c2ccc(C(=O)N[C@@H](C)c3ccc(C(F)(F)F)cc3)cc12
(II) Cc1c(C)n(Cc2ccc(-c3ccccc3C(=O)O)cc2)c2ccc(C(=O)N[C@H](C)c3c(F)ccc(F)c3F)cc12
(III) Cc1c(C)n(Cc2ccc(-c3ccccc3C(=O)O)cc2)c2ccc(C(=O)N[C@@H](C)c3ccccc3F)cc12
Query: Order the entries by their reported IC50, beginning at the minimum. Please write the labels in the order that was asked for.
Reply: II, III, I

Data provenance: patent US8957093B2
